The measurements presented in this section are drawn from ChEMBL document CHEMBL3885861.

What TC was measured for each of the following?
Species on record: Rattus norvegicus
PROCEDURE_TEXT: Open TG-GATES - Regimen: Daily Repeat
Type: toxicity, organism-based, Sprague-Dawley
Design: regimen Daily Repeat, gender Male, age 6 weeks
ASSAY_CONTEXT: in vivo, po, 0 mg/kg, […], tissue Plasma, route gavage, dose level Control, time 14 day
Quick note: give the figure in mg/dL, leave out the unit.

Request: Bench note: what TC did Nc1ccc(Cc2ccc(N)cc2)cc1 show?
Result: 76.6

Request: Bench note: what TC did CCCCNC(=O)NS(=O)(=O)c1ccc(C)cc1 [TOLBUTAMIDE] show?
Result: 72.8

Request: Bench note: what TC did CN(C/C=C/C#CC(C)(C)C)Cc1cccc2ccccc12 [TERBINAFINE] show?
Result: 63.6

Request: Bench note: what TC did O=c1ccc2ccccc2o1 [COUMARIN] show?
Result: 84

Request: Bench note: what TC did CCO [ALCOHOL] show?
Result: 64.4

Request: Bench note: what TC did COc1ccc([C@@H]2Sc3ccccc3N(CCN(C)C)C(=O)[C@@H]2OC(C)=O)cc1 [DILTIAZEM] show?
Result: 71.2

###

What KIDNEY_TOTAL was measured for each of the following?
Organism: Rattus norvegicus
PROCEDURE_TEXT: Open TG-GATES - Regimen: Daily Repeat
Type: toxicity, organism-based, Sprague-Dawley
Set-up: regimen Daily Repeat, gender Male, age 6 weeks
ASSAY_CONTEXT: in vivo, po, 1000 mg/kg, 72 h, tissue Kidney, route gavage, dose level High, time 3 day
Quick note: give the figure in g, leave out the unit.

Request: Bench note: what KIDNEY_TOTAL did O=C(O)c1ccccc1Nc1ccccc1 show?
Result: 2.1

Request: Bench note: what KIDNEY_TOTAL did CC(S)C(=O)NCC(=O)O (centres undefined) show?
Result: 2

Request: Bench note: what KIDNEY_TOTAL did CCCCNC(=O)NS(=O)(=O)c1ccc(C)cc1 [TOLBUTAMIDE] show?
Result: 2.1

Request: Bench note: what KIDNEY_TOTAL did CC(=O)[C@@]1(O)CC[C@H]2[C@@H]3C=C(Cl)C4=CC(=O)CC[C@]4(C)[C@H]3CC[C@@]21C show?
Result: 2

###

What Cl was measured for each of the following?
Organism: Rattus norvegicus
PROCEDURE_TEXT: Open TG-GATES - Regimen: Single
Format: toxicity, organism-based, Sprague-Dawley
Design: regimen Single, gender Male, age 6 weeks
ASSAY_CONTEXT: in vivo, po, 0 mg/kg, 6 h, tissue Plasma, route gavage, dose level Control
Quick note: give the figure in meq/L, leave out the unit.

Request: Bench note: what Cl did O=C(O)c1ccccc1Nc1ccccc1 show?
Result: 105

Request: Bench note: what Cl did CC(=O)[C@@]1(O)CC[C@H]2[C@@H]3C=C(Cl)C4=CC(=O)CC[C@]4(C)[C@H]3CC[C@@]21C show?
Result: 105.4

Request: Bench note: what Cl did O=c1ccc2ccccc2o1 show?
Result: 107.8

Request: Bench note: what Cl did CN(C)CCCN1c2ccccc2Sc2ccc(Cl)cc21 show?
Result: 103.4

Request: Bench note: what Cl did CN(C/C=C/C#CC(C)(C)C)Cc1cccc2ccccc12 show?
Result: 102.8

Request: Bench note: what Cl did Nc1ccc(Cc2ccc(N)cc2)cc1 show?
Result: 107.4

Request: Bench note: what Cl did CCCCNC(=O)NS(=O)(=O)c1ccc(C)cc1 [TOLBUTAMIDE] show?
Result: 105.6

Request: Bench note: what Cl did CCO show?
Result: 105.2

Request: Bench note: what Cl did CN(CCOc1ccc(CC2SC(=O)NC2=O)cc1)c1ccccn1.O=C(O)/C=C\C(=O)O (stereo unspecified) [ROSIGLITAZONE MALEATE] show?
Result: 104.2

Request: Bench note: what Cl did COc1ccc([C@@H]2Sc3ccccc3N(CCN(C)C)C(=O)[C@@H]2OC(C)=O)cc1 show?
Result: 106.6

Request: Bench note: what Cl did CC(S)C(=O)NCC(=O)O (stereo unspecified) show?
Result: 106.4
